meta.source: ChEMBL document CHEMBL1149458

- TEST TARGET: Lysophosphatidic acid receptor 1 (Homo sapiens)
- Sequence (Q92633 whole entry): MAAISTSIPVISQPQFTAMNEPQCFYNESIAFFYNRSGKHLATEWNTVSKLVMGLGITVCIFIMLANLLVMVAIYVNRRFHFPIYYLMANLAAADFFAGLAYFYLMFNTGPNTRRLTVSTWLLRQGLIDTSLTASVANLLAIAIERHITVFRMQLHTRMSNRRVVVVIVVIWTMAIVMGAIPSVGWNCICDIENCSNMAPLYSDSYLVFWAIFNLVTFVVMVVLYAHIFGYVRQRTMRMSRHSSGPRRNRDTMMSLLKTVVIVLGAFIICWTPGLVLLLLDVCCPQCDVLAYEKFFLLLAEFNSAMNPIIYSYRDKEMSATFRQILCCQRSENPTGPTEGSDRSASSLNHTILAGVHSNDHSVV
- MEASUREMENT DESCRIPTION: Activity at LPA1 receptor transfected RH7777 cells
ENDPOINT NAME: IC50 (nM)
Give just the numeric value; nM need not be written.

Need IC50, item CCCCCCCC(=O)OC[C@H](COP(=O)(O)O)OC(=O)CCCCCCC
692

---

- TEST TARGET: Autotaxin (Homo sapiens)
- MEASUREMENT DESCRIPTION: Inhibition of recombinant ATX from transfected HEK293 cells
- Format: cell-based
Items are presented alongside their recorded IC50.

# SMI, IC50
measured = [
    ("CCCCCCCC(=O)OC[C@H](COP(=O)(O)O)OC(=O)CCCCCCC", "1640 nM"),
    ("CCCCCCCC(=O)OC[C@@H](COP(O)(O)=S)OC(=O)CCCCCCC", "727 nM"),
]

Need IC50, item CCCCCCCC(=O)OC[C@H](COP(O)(O)=S)OC(=O)CCCCCCC
597 nM

---

- TEST TARGET: Peroxisome proliferator-activated receptor gamma (Homo sapiens)
- Sequence (whole entry): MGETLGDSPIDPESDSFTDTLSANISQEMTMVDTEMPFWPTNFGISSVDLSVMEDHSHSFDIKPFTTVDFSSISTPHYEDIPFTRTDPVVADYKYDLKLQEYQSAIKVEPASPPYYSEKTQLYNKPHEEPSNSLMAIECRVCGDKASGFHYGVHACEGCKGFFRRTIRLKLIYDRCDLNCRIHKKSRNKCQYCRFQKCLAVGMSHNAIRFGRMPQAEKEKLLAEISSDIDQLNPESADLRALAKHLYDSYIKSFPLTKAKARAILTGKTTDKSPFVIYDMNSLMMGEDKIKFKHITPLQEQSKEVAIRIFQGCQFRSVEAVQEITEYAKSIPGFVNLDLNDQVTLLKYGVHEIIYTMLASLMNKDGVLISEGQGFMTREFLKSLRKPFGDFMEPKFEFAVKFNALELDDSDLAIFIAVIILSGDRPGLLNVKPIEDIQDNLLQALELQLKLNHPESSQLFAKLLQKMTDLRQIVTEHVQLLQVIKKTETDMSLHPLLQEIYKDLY
- MEASUREMENT DESCRIPTION: Activation of PPARgamma in CV1 cells transfected with PPARgamma and luciferase reporter gene
- Format: functional, cell-based
- CONDITION: CV-1
The source made the active and inactive calls. No cut-off for these calls is given here.
ENDPOINT NAME: Activity

# SMI, Activity
records = [
    ("CCCCCCCCNC(=O)[C@@H](COP(=O)(O)O)NC(=O)CCCCCCC", "inactive"),
    ("CCCCCCCCNC(=O)[C@H](COP(O)(O)=S)NC(=O)CCCCCCC", "inactive"),
    ("CCCCCCCCOC[C@H](COP(=O)(O)O)OCCCCCCCC", "Active"),
    ("CCCCCCCCOC[C@@H](COP(O)(O)=S)OCCCCCCCC", "Active"),
    ("CCCCCCCC(=O)OC[C@@H](COP(=O)(O)O)OC(=O)CCCCCCC", "inactive"),
]

Need Activity, item CCCCCCCC(=O)OC[C@@H](COP(O)(O)=S)OC(=O)CCCCCCC
inactive

Need Activity, item CCCCCCCCNC(=O)[C@@H](COP(O)(O)=S)NC(=O)CCCCCCC
inactive

Need Activity, item CCCCCCCCOC[C@@H](COP(=O)(O)O)OCCCCCCCC
Active

Need Activity, item CCCCCCCCOC[C@H](COP(O)(O)=S)OCCCCCCCC
Active

Need Activity, item CCCCCCCC(=O)OC[C@H](COP(O)(O)=S)OC(=O)CCCCCCC
inactive
